Measured Ki of individual entries
assayed system: E. coli FabI (Escherichia coli, UniProt P0AEK4)
Construct: His(6) with TEV site (cleaved yes)
Sequence (P0AEK4 whole entry): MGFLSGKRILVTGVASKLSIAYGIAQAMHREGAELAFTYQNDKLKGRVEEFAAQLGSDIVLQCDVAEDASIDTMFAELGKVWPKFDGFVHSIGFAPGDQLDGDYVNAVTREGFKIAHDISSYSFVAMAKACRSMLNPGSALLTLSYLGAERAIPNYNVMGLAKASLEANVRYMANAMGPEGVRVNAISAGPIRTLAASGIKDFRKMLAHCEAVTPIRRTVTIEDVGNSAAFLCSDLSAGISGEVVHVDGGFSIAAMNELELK
experiment summary: In vitro FabI enzymatic inhibition assay
run conditions: EcFabI; Morrison's quadratic fit; 5 nM enzyme; read-out: Ki app
Procedure: supplemented with 100 µg/mL ampicillin at 37°C until OD600 reached 0.6-0.7. The cells were induced with 1mM IPTG and incubated for 20 hours at 18°C and spun down at 8000 rpm for 15 minutes. […] Recombinant E. coli and A. baummani FabI enzymes were used in a continuous NADH absorbance assay (20 µL in 384w format). […] After shaking for 5 seconds the reaction was monitored at NADH absorbance (340nm, 25°C) using a Molecular Devices SpectraMax M5 microplate reader. […]
Respond numerically; units are nM and should not be typed.

These solved cases illustrate the format of a correct answer.
Field request: Ki | item: "Cc1c(CN(C)C(=O)/C=C/c2cnc3c(c2)CC[C@H](N)C(=O)N3)oc2ccccc12"
8

Field request: Ki | item: Cc1c(CN(C)C(=O)/C=C/c2cnc3c(c2)CC[C@@H](N)C(=O)N3)oc2ccccc12 [(R)-7]
38

Let us examine a further case.
Field request: Ki | item: Cc1c(CN(C)C(=O)/C=C/c2cnc3c(c2)CC[C@H](NC(=O)OC(C)(C)C)C(=O)N3)oc2ccccc12 [(S)-11]
60
